biological target: ATP-binding cassette sub-family B member 6 (Homo sapiens) (UniProt Q9NP58); test: ABCB6 transporter inhibitors, pilot screen, K562-ABCB6 cells, flow cytometry, validation set (AID 588550); conditions: K562-ABCB6 porphyrin accumulation, 1 h, at 10 µM, hits give high values;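 note: 0% = DMSO wells and 100% = benzethonium chloride 70 µM positive control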
Sequence (Q9NP58 whole entry, looked up): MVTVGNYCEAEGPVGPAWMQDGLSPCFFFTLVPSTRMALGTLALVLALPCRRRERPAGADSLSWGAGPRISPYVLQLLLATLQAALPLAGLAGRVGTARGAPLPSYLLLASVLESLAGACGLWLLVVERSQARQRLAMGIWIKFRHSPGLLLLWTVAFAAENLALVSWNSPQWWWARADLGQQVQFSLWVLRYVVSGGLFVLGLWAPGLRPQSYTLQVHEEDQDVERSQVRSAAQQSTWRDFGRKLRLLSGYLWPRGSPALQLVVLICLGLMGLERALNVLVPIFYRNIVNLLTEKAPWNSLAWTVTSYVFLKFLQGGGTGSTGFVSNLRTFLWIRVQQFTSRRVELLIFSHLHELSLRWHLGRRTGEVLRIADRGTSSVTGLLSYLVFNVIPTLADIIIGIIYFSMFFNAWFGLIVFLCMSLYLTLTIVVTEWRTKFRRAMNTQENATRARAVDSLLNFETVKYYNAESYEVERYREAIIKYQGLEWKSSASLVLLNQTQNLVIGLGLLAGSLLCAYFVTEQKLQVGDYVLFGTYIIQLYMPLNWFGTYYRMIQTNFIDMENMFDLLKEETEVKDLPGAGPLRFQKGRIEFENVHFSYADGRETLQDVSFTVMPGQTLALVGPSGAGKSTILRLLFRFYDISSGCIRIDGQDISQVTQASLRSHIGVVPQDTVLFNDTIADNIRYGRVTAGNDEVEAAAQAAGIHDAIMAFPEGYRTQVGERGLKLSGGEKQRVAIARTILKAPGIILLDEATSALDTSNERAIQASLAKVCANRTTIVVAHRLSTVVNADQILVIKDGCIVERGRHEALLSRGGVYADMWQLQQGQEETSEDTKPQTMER
The molecules listed here are annotated with their inhibition.

{"molecule": "CCOC(=O)c1cnc2ccccc2c1NCCO", "measured_on": "ATP-binding cassette sub-family B member 6 (Homo sapiens) (UniProt Q9NP58)", "readout_unit": "%", "inhibition": 7}
{"molecule": "COc1ccc(CN(C)CCc2ccccn2)cc1OC", "measured_on": "ATP-binding cassette sub-family B member 6 (Homo sapiens) (UniProt Q9NP58)", "readout_unit": "%", "inhibition": 2}
{"molecule": "CC(C)OC(=O)CC1C(=O)NCCN1C(=S)NC(=O)c1cccs1 (centres undefined)", "measured_on": "ATP-binding cassette sub-family B member 6 (Homo sapiens) (UniProt Q9NP58)", "readout_unit": "%", "inhibition": 8}
{"molecule": "COc1ccc(-c2coc3cc(O)cc(O)c3c2=O)cc1", "measured_on": "ATP-binding cassette sub-family B member 6 (Homo sapiens) (UniProt Q9NP58)", "readout_unit": "%", "inhibition": 7}

====

experiment: modulators of CIT2-GFP expression in yeast, confirmation, S. cerevisiae, GFP fusion, cherry picks, mother/daughter gates (AID 2274); settings: S. cerevisiae CIT2-GFP strain, flow cytometry, 3 h; at 10 µM; hits give high values

{"molecule": "Cc1ccc(/C(N)=N/OC(=O)c2ccc(F)cc2)cc1", "GFP response, % of DMSO (%)": 134}
{"molecule": "COc1ccc(N2C(=O)c3cccc4cccc(c34)C2=O)nn1", "GFP response, % of DMSO (%)": 92.6}
{"molecule": "CCc1nnc(NC(=O)CSc2nnc(C3CCCCC3)n2-c2cccc(Cl)c2)s1", "GFP response, % of DMSO (%)": 101}
{"molecule": "N/C(=N\\OC(=O)c1ccccc1Cl)c1ccc(Cl)cc1", "GFP response, % of DMSO (%)": 130}
{"molecule": "Cc1cccc(N=c2oc3cc(O)ccc3cc2C(N)=O)c1", "GFP response, % of DMSO (%)": 108}
{"molecule": "O=S(=O)(/N=C(\\Sc1ccc(Cl)cc1)c1ccccc1)c1ccccc1", "GFP response, % of DMSO (%)": 90.3}
{"molecule": "CCOC(=O)c1sc(NC(=O)CN2C(=O)c3cccc4cccc(c34)C2=O)nc1C", "GFP response, % of DMSO (%)": 98.3}
{"molecule": "COC(=O)Cc1csc(Nc2ccc(F)c(Cl)c2)n1", "GFP response, % of DMSO (%)": 110}
{"molecule": "NC(=O)c1ccc(Oc2ccc(-c3nnco3)cc2)c([N+](=O)[O-])c1", "GFP response, % of DMSO (%)": 110}
{"molecule": "Cc1ccc(N2CCN(C(=O)c3ccccc3Br)CC2)c(C)c1", "GFP response, % of DMSO (%)": 96.9}
{"molecule": "N=c1ccn(CC(=O)c2ccc(-c3ccccc3)cc2)cc1", "GFP response, % of DMSO (%)": 96.4}
{"molecule": "Cc1ccc(N2C(=O)C3C4C=CC(CNC(=S)N5CCN(c6ccccn6)CC5)(O4)C3C2=O)cc1 (stereo not given)", "GFP response, % of DMSO (%)": 99.3}
{"molecule": "CCOc1ccc(Nc2nc(N(C)c3ccccc3)nc(N)c2[N+](=O)[O-])cc1", "GFP response, % of DMSO (%)": 104}
{"molecule": "CCCc1[nH]nc2c1C(c1ccc(OC)cc1OC)C(C#N)=C(N)O2 (stereo not given)", "GFP response, % of DMSO (%)": 94}
{"molecule": "COc1cccc2cc(C(=O)N3CCN(C/C=C/c4ccccc4)CC3)c(=O)oc12", "GFP response, % of DMSO (%)": 95.9}
